Origin of the recorded values: the Human Domainome abundance scans (Beltran et al. 2025)

B1: Intersectin-1, residues 909 to 971; numbered along this chain, Q15811 (parent)
chain: QGEKVEGLQAQALYPWRAKKDNHLNFNKNDVITVLEQQDMWWFGEVQGQKGWFPKSYVKLISG

- Variants of: B1
- METHOD_DESCRIPTION: abundance fitness (aPCA) (normalised: wild type 0, dead -1); higher = more abundant; growth selection in yeast, the domain comes from the species named
- RUN_PARAMETERS: Homo sapiens
Decide using abundance fitness: a value greater than or equal to -0.1 is T, a smaller one is F.

Data request: Record QGEKVEGLQAQALYPWRAKKDNHLNFNKNDVITVLEQQDMWWFGEVQGQKGWFPKSYVSLISG [K59S] ; criterion: abundance fitness no lower than -0.1. Met?
Data returned: F

Data request: Record QGEKVEGLQAQALYPWRAKKDNHLNFNKNDVITVLEQQDMPWFGEVQGQKGWFPKSYVKLISG [W41P] ; criterion: abundance fitness no lower than -0.1. Met?
Data returned: F

Data request: Record QGEKVEGLQAQALYPWRAKKDNHLNFNKNDWITVLEQQDMWWFGEVQGQKGWFPKSYVKLISG [V31W] ; criterion: abundance fitness no lower than -0.1. Met?
Data returned: F

Data request: Record QGEKDEGLQAQALYPWRAKKDNHLNFNKNDVITVLEQQDMWWFGEVQGQKGWFPKSYVKLISG [V5D] ; criterion: abundance fitness no lower than -0.1. Met?
Data returned: T

Data request: Record QGEKVEGLQAQALYPWRAKKDNHLNFNKNDVITVLEAQDMWWFGEVQGQKGWFPKSYVKLISG [Q37A] ; criterion: abundance fitness no lower than -0.1. Met?
Data returned: T

Data request: Record QGEKVEGLQAQALYPWRAKKDNHLNFNKNDVITVLEQQDMWWFGNVQGQKGWFPKSYVKLISG [E45N] ; criterion: abundance fitness no lower than -0.1. Met?
Data returned: F

Data request: Record QGEKVEGLQAQALYPWRAKKDNHLNFNKNDGITVLEQQDMWWFGEVQGQKGWFPKSYVKLISG [V31G] ; criterion: abundance fitness no lower than -0.1. Met?
Data returned: F

Data request: Record QGEKVEGLQAQALYPWRAKKDNHLNFNKNDVITVLEQQDMWWFGEVQGQKGWFPKSYVKIISG [L60I] ; criterion: abundance fitness no lower than -0.1. Met?
Data returned: F

Data request: Record QGEKVEGLQAQALYPWRAKKDNHLNFNKNDVITVLEQQDMWWFGEHQGQKGWFPKSYVKLISG [V46H] ; criterion: abundance fitness no lower than -0.1. Met?
Data returned: T

Data request: Record QGEKVRGLQAQALYPWRAKKDNHLNFNKNDVITVLEQQDMWWFGEVQGQKGWFPKSYVKLISG [E6R] ; criterion: abundance fitness no lower than -0.1. Met?
Data returned: F

Data request: Record QGEKVEGLQAQALYPWRAKKDNLLNFNKNDVITVLEQQDMWWFGEVQGQKGWFPKSYVKLISG [H23L] ; criterion: abundance fitness no lower than -0.1. Met?
Data returned: F

Data request: Record QGEKVEGLQAQALYPWRAKKDNHLNFNGNDVITVLEQQDMWWFGEVQGQKGWFPKSYVKLISG [K28G] ; criterion: abundance fitness no lower than -0.1. Met?
Data returned: F

Data request: Record QGEKCEGLQAQALYPWRAKKDNHLNFNKNDVITVLEQQDMWWFGEVQGQKGWFPKSYVKLISG [V5C] ; criterion: abundance fitness no lower than -0.1. Met?
Data returned: F

Data request: Record QGEKVEGLQAQALYPWRAKKDNHLNFNKNDVITVLEQQDMWWPGEVQGQKGWFPKSYVKLISG [F43P] ; criterion: abundance fitness no lower than -0.1. Met?
Data returned: F

Data request: Record QGEKVEGLQAQALYPWRAKKDNHLNFNKNDVITVLEQQDMWWFGEVQGQKGWFPKSYVCLISG [K59C] ; criterion: abundance fitness no lower than -0.1. Met?
Data returned: F

Data request: Record GGEKVEGLQAQALYPWRAKKDNHLNFNKNDVITVLEQQDMWWFGEVQGQKGWFPKSYVKLISG [Q1G] ; criterion: abundance fitness no lower than -0.1. Met?
Data returned: T

Data request: Record QGEKVEGLQAQALYPWRAKKDNHLNFNKNDVITVLEQQDMSWFGEVQGQKGWFPKSYVKLISG [W41S] ; criterion: abundance fitness no lower than -0.1. Met?
Data returned: F

Data request: Record QGEKVEGLQAKALYPWRAKKDNHLNFNKNDVITVLEQQDMWWFGEVQGQKGWFPKSYVKLISG [Q11K] ; criterion: abundance fitness no lower than -0.1. Met?
Data returned: F

Data request: Record QGEKVEGLQAQALYPWRAKKDNHLNFNKNDVITVLEQQDMWWFGEVQLQKGWFPKSYVKLISG [G48L] ; criterion: abundance fitness no lower than -0.1. Met?
Data returned: F

Data request: Record QGEKVEGLQAQALYPWRAKKDNHLNFNKNDVITVLEQQDMWKFGEVQGQKGWFPKSYVKLISG [W42K] ; criterion: abundance fitness no lower than -0.1. Met?
Data returned: F

Data request: Record QGEKVEGLQAQCLYPWRAKKDNHLNFNKNDVITVLEQQDMWWFGEVQGQKGWFPKSYVKLISG [A12C] ; criterion: abundance fitness no lower than -0.1. Met?
Data returned: F

Data request: Record QGEKVEGLQAQALYPWRAKKDNHLNFNKNDVITVLEQQDMWWFGEVEGQKGWFPKSYVKLISG [Q47E] ; criterion: abundance fitness no lower than -0.1. Met?
Data returned: T

Data request: Record QGEKVEGLQAQALYPWRAKKDNHLNFNKNDVITVLEQQDMWWFGEVQGQKGWFPRSYVKLISG [K55R] ; criterion: abundance fitness no lower than -0.1. Met?
Data returned: T

Data request: Record QGEKVEGLQAQWLYPWRAKKDNHLNFNKNDVITVLEQQDMWWFGEVQGQKGWFPKSYVKLISG [A12W] ; criterion: abundance fitness no lower than -0.1. Met?
Data returned: F

Data request: Record QGEKVEGLQAQALYPWRAKKDNHLNFNKNDVITVLEQQDMWWFGEVQTQKGWFPKSYVKLISG [G48T] ; criterion: abundance fitness no lower than -0.1. Met?
Data returned: F

Data request: Record QGEKVEGLHAQALYPWRAKKDNHLNFNKNDVITVLEQQDMWWFGEVQGQKGWFPKSYVKLISG [Q9H] ; criterion: abundance fitness no lower than -0.1. Met?
Data returned: T

Data request: Record QGEKVEGLQAQALYPWRAKKDNHLDFNKNDVITVLEQQDMWWFGEVQGQKGWFPKSYVKLISG [N25D] ; criterion: abundance fitness no lower than -0.1. Met?
Data returned: T

Data request: Record QGEKVEGLQAQALYPRRAKKDNHLNFNKNDVITVLEQQDMWWFGEVQGQKGWFPKSYVKLISG [W16R] ; criterion: abundance fitness no lower than -0.1. Met?
Data returned: F

Data request: Record QGEKVEGLQAQALYPWRAKKDNHLNFNKNDVITVLEQQDMAWFGEVQGQKGWFPKSYVKLISG [W41A] ; criterion: abundance fitness no lower than -0.1. Met?
Data returned: F

Data request: Record QGEKVEGLQAQALYPWRAKKDNHLNFNKNDVITVLEQQDMWLFGEVQGQKGWFPKSYVKLISG [W42L] ; criterion: abundance fitness no lower than -0.1. Met?
Data returned: T

Data request: Record QGEKVEGLQAQALQPWRAKKDNHLNFNKNDVITVLEQQDMWWFGEVQGQKGWFPKSYVKLISG [Y14Q] ; criterion: abundance fitness no lower than -0.1. Met?
Data returned: F

Data request: Record QGEKVEGLQAQALYPERAKKDNHLNFNKNDVITVLEQQDMWWFGEVQGQKGWFPKSYVKLISG [W16E] ; criterion: abundance fitness no lower than -0.1. Met?
Data returned: F
